The molecules listed here are annotated with their pIC50.
Study System: Bromodomain-containing protein 4 (Homo sapiens, UniProt O60885)
Protocol Summary: Displacement of biotinylated small-molecule ligand from recombinant His-tagged BRD4 bromodomain 2 (unknown origin) measured after 10 mins by TR-FRET assay
// returns pIC50 (minus log10 of molar concentration), number only

These recorded examples may help you get a feel for the data.
>>> readout_value("C/C=C/Cn1cc(-c2ccc(C(=O)N3CCOCC3)c(C#N)c2)c2cc(C)[nH]c2c1=O")
4.87
>>> readout_value("C/C=C/Cn1cc(-c2ccc(C(=O)N3CCOCC3)cc2)c2cc[nH]c2c1=O")
5.08

Look up and report measured pIC50 for this entry: "C/C=C/Cn1cc(-c2ccc(C(=O)N3CCOCC3)c(OC)c2)c2cc(C)[nH]c2c1=O" 4.76

Look up and report measured pIC50 for this entry: "C/C=C/Cn1cc(-c2ccc(C(=O)N3CCOCC3)c(C)c2)c2cc(C)[nH]c2c1=O" 4.84

* * *

Study System: UniProt:Q9BXF3
Sequence (Q9BXF3 whole entry): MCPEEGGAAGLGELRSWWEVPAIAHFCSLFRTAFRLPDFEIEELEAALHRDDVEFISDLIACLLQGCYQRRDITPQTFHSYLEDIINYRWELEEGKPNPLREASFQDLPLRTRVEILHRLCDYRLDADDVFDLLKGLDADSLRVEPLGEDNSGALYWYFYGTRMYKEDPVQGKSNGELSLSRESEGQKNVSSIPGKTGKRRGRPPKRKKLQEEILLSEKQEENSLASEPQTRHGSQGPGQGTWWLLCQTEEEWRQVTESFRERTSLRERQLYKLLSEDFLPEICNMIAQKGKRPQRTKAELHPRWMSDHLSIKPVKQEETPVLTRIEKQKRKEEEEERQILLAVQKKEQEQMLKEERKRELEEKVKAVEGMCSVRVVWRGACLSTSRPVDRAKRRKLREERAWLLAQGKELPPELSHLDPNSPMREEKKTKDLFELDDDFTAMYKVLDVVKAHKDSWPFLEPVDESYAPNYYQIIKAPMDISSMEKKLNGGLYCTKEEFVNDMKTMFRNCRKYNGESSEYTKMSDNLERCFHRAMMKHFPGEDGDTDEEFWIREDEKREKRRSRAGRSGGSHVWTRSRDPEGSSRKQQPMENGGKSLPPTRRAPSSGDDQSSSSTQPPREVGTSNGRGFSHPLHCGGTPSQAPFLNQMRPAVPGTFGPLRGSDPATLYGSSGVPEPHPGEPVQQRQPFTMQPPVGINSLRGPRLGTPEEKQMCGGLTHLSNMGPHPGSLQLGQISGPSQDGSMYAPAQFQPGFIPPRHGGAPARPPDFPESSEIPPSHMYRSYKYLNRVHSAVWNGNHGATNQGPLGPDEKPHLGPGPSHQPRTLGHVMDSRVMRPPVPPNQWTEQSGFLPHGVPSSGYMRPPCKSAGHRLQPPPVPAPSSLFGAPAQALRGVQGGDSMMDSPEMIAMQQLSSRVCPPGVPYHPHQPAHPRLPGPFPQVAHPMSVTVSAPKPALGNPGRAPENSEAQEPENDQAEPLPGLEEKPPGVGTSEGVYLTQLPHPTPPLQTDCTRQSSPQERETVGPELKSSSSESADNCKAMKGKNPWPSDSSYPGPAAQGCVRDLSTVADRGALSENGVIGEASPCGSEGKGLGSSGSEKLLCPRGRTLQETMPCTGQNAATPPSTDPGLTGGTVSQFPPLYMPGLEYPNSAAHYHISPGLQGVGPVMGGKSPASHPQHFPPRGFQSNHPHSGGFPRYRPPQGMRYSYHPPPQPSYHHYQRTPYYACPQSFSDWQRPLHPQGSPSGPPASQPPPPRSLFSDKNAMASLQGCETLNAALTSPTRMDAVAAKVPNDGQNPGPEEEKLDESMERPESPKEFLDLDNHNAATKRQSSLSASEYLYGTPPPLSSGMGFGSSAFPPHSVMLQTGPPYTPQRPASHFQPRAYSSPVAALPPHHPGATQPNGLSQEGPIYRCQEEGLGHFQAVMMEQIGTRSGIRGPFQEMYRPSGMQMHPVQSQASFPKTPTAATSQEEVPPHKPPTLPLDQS
Protocol Summary: Displacement of biotinylated small-molecule ligand from recombinant His-tagged CECR2 (unknown origin) measured after 10 mins by TR-FRET assay
The compounds listed here are annotated with their pIC50.
// returns pIC50 (minus log10 of molar concentration), number only

These recorded examples may help you get a feel for the data.
>>> readout_value("C/C=C/Cn1cc(-c2ccc(C(=O)N3CCOCC3)cc2)c2cc(C)[nH]c2c1=O")
6.09
>>> readout_value("C/C=C/Cn1cc(-c2ccc(C(=O)N3CCOCC3)c(Cl)c2)c2cc(C)[nH]c2c1=O")
6.34
>>> readout_value("C/C=C/Cn1cc(-c2ccc(C(=O)N3CCOCC3)cc2)c2cc[nH]c2c1=O")
5.54

Provide UniProt:Q9BXF3 pIC50 reading for "C/C=C/Cn1cc(-c2cc(OC)c(C(C)(C)O)cc2OC)c2cc(C)[nH]c2c1=O" . 5.37

Provide UniProt:Q9BXF3 pIC50 reading for "C/C=C/Cn1cc(-c2ccc(C(=O)N3CCOCC3)c(OC)c2)c2cc(C)[nH]c2c1=O" . 6.00

Provide UniProt:Q9BXF3 pIC50 reading for "C/C=C/Cn1cc(-c2ccc(C(=O)N3CCOCC3)c(C#N)c2)c2cc(C)[nH]c2c1=O" . 6.43

* * *

The compounds listed here are annotated with their IC50.
Study System: Transcription initiation factor TFIID subunit 1 (Homo sapiens)
Sequence (P21675 whole entry): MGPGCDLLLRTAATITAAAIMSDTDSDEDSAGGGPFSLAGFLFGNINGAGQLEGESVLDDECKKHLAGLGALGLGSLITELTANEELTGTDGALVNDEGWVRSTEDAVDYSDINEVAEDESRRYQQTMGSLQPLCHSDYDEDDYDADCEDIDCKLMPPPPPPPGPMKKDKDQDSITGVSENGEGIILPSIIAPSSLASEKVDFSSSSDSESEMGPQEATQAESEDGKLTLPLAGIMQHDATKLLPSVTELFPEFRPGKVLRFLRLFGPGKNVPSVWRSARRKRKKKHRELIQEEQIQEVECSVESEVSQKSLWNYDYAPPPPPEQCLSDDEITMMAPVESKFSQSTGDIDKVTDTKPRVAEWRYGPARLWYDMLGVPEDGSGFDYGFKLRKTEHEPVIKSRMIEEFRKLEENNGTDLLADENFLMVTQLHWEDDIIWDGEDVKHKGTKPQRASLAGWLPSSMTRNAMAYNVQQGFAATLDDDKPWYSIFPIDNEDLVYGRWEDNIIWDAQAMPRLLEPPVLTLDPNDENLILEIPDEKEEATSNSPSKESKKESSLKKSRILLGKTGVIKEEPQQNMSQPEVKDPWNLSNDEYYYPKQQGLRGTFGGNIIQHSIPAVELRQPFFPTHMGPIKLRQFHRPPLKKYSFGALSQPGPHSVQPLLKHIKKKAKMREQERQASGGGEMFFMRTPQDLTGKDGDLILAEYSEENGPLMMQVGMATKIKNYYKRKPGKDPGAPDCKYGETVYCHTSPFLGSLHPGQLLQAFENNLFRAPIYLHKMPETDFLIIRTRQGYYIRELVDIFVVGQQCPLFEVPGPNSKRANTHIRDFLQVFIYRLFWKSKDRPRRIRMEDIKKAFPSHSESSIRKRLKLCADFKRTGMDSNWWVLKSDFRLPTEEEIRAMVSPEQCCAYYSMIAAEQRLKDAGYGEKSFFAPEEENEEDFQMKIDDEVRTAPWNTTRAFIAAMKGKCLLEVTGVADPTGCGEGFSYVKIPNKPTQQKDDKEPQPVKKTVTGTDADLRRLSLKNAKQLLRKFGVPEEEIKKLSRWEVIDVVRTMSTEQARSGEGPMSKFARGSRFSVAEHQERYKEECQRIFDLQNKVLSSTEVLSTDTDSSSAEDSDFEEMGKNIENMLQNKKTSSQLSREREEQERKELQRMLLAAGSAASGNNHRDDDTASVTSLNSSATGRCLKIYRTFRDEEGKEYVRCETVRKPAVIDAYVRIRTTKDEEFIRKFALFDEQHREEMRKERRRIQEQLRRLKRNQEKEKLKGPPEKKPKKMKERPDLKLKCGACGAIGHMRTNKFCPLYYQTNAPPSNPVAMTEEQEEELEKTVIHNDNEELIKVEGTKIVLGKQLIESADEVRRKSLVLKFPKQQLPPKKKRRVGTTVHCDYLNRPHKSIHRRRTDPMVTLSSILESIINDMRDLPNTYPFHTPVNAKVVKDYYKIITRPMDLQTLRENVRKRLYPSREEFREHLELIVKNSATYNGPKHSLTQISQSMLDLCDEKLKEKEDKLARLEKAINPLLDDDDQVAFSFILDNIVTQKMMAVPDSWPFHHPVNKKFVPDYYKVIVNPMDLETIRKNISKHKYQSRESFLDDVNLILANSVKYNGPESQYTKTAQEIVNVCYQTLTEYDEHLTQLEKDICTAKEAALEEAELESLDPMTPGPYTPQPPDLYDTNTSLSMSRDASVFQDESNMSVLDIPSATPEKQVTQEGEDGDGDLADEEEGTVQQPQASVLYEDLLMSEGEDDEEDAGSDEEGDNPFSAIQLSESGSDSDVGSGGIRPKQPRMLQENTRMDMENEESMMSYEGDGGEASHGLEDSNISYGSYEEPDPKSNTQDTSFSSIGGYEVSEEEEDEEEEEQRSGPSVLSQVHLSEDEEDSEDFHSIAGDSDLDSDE
Protocol Summary: Displacement of biotinylated small-molecule ligand from recombinant His-tagged TAF1 bromodomain 2 (unknown origin) measured after 10 mins by TR-FRET assay

These recorded examples may help you get a feel for the data.
>>> readout_value("C/C=C/Cn1cc(-c2ccc(C(C)(C)O)cc2OC)c2cc[nH]c2c1=O")
"> 20 µM"
>>> readout_value("C/C=C/Cn1cc(-c2cc(OC)c(C(C)(C)O)cc2OC)c2cc(C)[nH]c2c1=O")
"> 20 µM"

Provide Transcription initiation factor TFIID subunit 1 (Homo sapiens) IC50 reading for "C/C=C/Cn1cc(-c2cc(OC)c(C(=O)N3CCOCC3)cc2OC)c2cc(C)[nH]c2c1=O" . > 20 µM
